- Tested on: SK-MEL-28 melanoma
- METHOD: NCI tumour cell line growth inhibition, 48 h
MEASURED_PROPERTY: TGI

COMPOUND	MEASURED_PROPERTY	VALUE_REPORTED
O=C1OC([C@H](O)c2cccnc2)c2ccccc21 (stereo not given in full)	TGI	> 10 µM
Cn1c(=O)c2c(nc(N/N=C/c3ccccc3C(=O)O)n2C)n(C)c1=O	TGI	> 100 µM
O=C(NCCN1CCCCC1)c1cccc(I)c1	TGI	> 100 µM
CCOC(=O)C(=CNc1ccc(F)c(F)c1)C(=O)OCC	TGI	> 100 µM

Shift focus to the following entry.
Lookup: // returns reported TGI for input COc1cc(-c2nn(-c3cccc(NC(=O)CCN4CCN(c5ccccc5)CC4)c3)cc2-c2ccncc2)ccc1Cl
Found: > 100 µM

====

- Tested on: KM20L2 colon
- METHOD: NCI tumour cell line growth inhibition, 48 h
MEASURED_PROPERTY: TGI

Lookup: // returns reported TGI for input O=[N+]([O-])c1cccc(Nc2nc(Cl)nc(Cl)n2)c1
Found: > 100 µM

Lookup: // returns reported TGI for input C[C@H]1CC[P+](C)(c2ccccc2)C1 (stereo partly drawn)
Found: > 100 µM

Lookup: // returns reported TGI for input O=C1OC(=O)C([Se]c2ccccc2)=C1[Se]c1ccccc1
Found: > 100 µM

====

- System: OVCAR-4 ovarian
- METHOD: NCI tumour cell line growth inhibition, 48 h
MEASURED_PROPERTY: TGI

Lookup: # get_value(readout= TGI, system= OVCAR-4 ovarian) for Cc1nn(C(=O)c2ccncc2)c2c1C(c1ccccc1[N+](=O)[O-])SC(N)=N2 (stereo unspecified)
Found: > 10 µM

====

- Test system: K-562 leukemia
- METHOD: NCI tumour cell line growth inhibition, 48 h
Listed molecules paired with reported TGI
Expressed in µM, but write only the number.

Lookup: // returns reported TGI for input CCOc1ccc2cc(-c3nn(CC4CCNCC4)c4ncnc(N)c34)ccc2c1
Found: 17.1

Lookup: // returns reported TGI for input COc1ccc(-c2csc(Nc3cccc(-c4csc(C)n4)c3)n2)cc1
Found: 0.507

Lookup: // returns reported TGI for input Nc1ccccc1C#Cc1ccccc1C#Cc1cccs1
Found: 40.7

Lookup: // returns reported TGI for input CCCCCCCCCCCCCCCC[n+]1ccccc1
Found: 1.64

====

- Test system: SW-620 colon
- METHOD: NCI tumour cell line growth inhibition, 48 h
Listed compounds paired with reported TGI

Past entries and their recorded results:
COMPOUND	STUDY_SYSTEM	TGI
C/C(C=O)=C/[C@@]1(C)O[C@@H](C)[C@@](C)(O)[C@@H]1O	SW-620 colon	> 100 µM
O=C1CCC(=O)N1Sc1ccccc1	SW-620 colon	> 100 µM
CC(C)(C)OC(=O)N1CCCC1C(=O)NC(c1ccccc1)c1ccccc1 (stereo not given)	SW-620 colon	> 100 µM
COc1cc(-c2nn(-c3cccc(NC(=O)CCNc4ccc(N5CCOCC5)cc4)c3)cc2-c2ccncc2)ccc1Cl	SW-620 colon	> 100 µM
O=C(O)c1cc2ccccc2c(N=Nc2ccc(S(=O)(=O)Nc3ncccn3)cc2)c1O	SW-620 colon	> 100 µM
COc1ccccc1NC(=O)C1=C(C)NC(C)=C(C(=O)Nc2ccccc2OC)C1c1ccco1	SW-620 colon	> 100 µM

Lookup: // returns reported TGI for input COc1ccccc1-c1c(C#N)c(N)[nH]c(=S)c1C#N
Found: > 100 µM

Lookup: // returns reported TGI for input CC[C@H]1OC(=O)[C@H](C)[C@@H](O[C@H]2C[C@@](C)(OC)[C@@H](O)[C@H](C)O2)[C@H](C)[C@@H](O[C@@H]2O[C@H](C)C[C@H](N(C)C)[C@H]2O)[C@](C)(OC)C/C(C)=C2/O[C@@]1(C)C=C2C
Found: 3.42 µM

Lookup: // returns reported TGI for input Cc1ccc(OC(=O)N2C/C(=C\c3ccccc3)C(=O)/C(=C/c3ccccc3)C2)cc1
Found: 35.6 µM

Lookup: // returns reported TGI for input O=c1[nH]cnc2n[nH]nc12
Found: > 100 µM

====

- Tested on: NCI-H226 lung
- METHOD: NCI tumour cell line growth inhibition, 48 h
Listed compounds paired with reported TGI

MOL	STUDY_SYSTEM	VALUE_REPORTED
COc1ccc(C2=Nn3c(nnc3-n3nc(C)cc3C)SC2)cc1	NCI-H226 lung	> 100 µM
CN(CCc1ccccn1)c1ccc2c(c1)C(=O)c1ccccc1-2	NCI-H226 lung	> 100 µM

Shift focus to the following entry.
Lookup: # get_value(readout= TGI, system= NCI-H226 lung) for CC1(C)N=C(N)N=C(N)N1c1cccc(CCc2ccccc2)c1
Found: > 100 µM

====

- Tested on: MDA-MB-231 breast
- METHOD: NCI tumour cell line growth inhibition, 48 h; in the data active means GI50 below about 0.43 µM; inactive means the rest
Would you mind answering with one of these outcomes? yes (1) (active), no (0) (inactive)

Example results:
MOLECULE	CLASS_NAME
CSC1=Nc2c(c(C)c(-c3ccccc3)n2COC(CO)CO)C2=NC(=O)CC(C)N12 (stereo unspecified)	no (0)
COc1ccc2c(c1OC)O/C(=C\c1ncc([N+](=O)[O-])n1C)C2=O	no (0)
CCOC(=O)c1c(NC(=O)c2ccc(Cl)cc2)sc2c(CN(C)C)c(O)ccc12	no (0)
N#[N+]c1ccc(Nc2ccccc2)cc1	no (0)
Cc1cc(S(N)(=O)=O)c(S/C(=N\NS(=O)(=O)c2ccccc2)c2ccc(Cl)cc2)cc1Cl	no (0)
Cc1cc(NN=C(c2ccc(O)cc2)c2ccc(O)cc2)c([N+](=O)[O-])cc1[N+](=O)[O-]	no (0)
CCOC(=O)c1c(CN2CCN(C)CC2)nc2ccc(Cl)cc2c1-c1ccccc1	no (0)
C#C[C@]1(O)CC[C@H]2[C@@H]3CC=C4c5nc(N)sc5CC[C@]4(C)[C@H]3CC[C@@]21C	no (0)
COc1ccc(C2=Nn3c(nnc3-n3nc(C)cc3C)SC2)cc1	yes (1)
Cc1ccc(C2CC(c3ccc(Nc4ccnc5cc(Cl)ccc45)cc3)=NN2C=O)cc1 (stereo unspecified)	no (0)

Lookup: # outcome recorded in this test, key = CN1CC[C@H](c2c(O)cc(O)c3c(=O)cc(-c4ccccc4Cl)oc23)[C@H](O)C1
Found: yes (1)

Lookup: # outcome recorded in this test, key = COc1cc(NC2CCCCC2O)c2nc(-c3ccc(Cl)cc3)ccc2c1 (stereo unspecified)
Found: no (0)

Lookup: # outcome recorded in this test, key = C[As](C)SC1OCC(O)C(O)C1O (stereo unspecified)
Found: yes (1)

Lookup: # outcome recorded in this test, key = OCC(O)C(O)C(O)C(O)c1nnc2c(-c3ccccc3)nc3ccccc3n12 (stereo unspecified)
Found: no (0)

Lookup: # outcome recorded in this test, key = COc1cc(-c2nn(-c3cccc(NC(=O)CCNc4ccc(N5CCOCC5)cc4)c3)cc2-c2ccncc2)ccc1Cl
Found: no (0)

Lookup: # outcome recorded in this test, key = Cn1cnnc1[S-].[Au+].c1ccc([PH+](c2ccccc2)c2ccccc2)cc1
Found: no (0)

====

- Tested on: SK-MEL-2 melanoma
- METHOD: NCI tumour cell line growth inhibition, 48 h
Listed compounds paired with reported TGI

COMPOUND	STUDY_SYSTEM	TGI
CCn1c(-c2nonc2N)nc2cnc(Oc3cccc(NC(=O)c4ccc(N(C)C)cc4)c3)cc21	SK-MEL-2 melanoma	> 25 µM
CCCNCCCCC(NC(C)=O)C(=O)NCc1ccccc1 (stereo unspecified)	SK-MEL-2 melanoma	> 100 µM
CN1CCC(C(O)(c2ccccc2)c2ccc(Br)cc2)CC1 (stereo unspecified)	SK-MEL-2 melanoma	30.3 µM

Lookup: // returns reported TGI for input COc1cc(OC)c2c(=O)c3cccc([N+](=O)[O-])c3n(C)c2c1
Found: > 100 µM

Lookup: // returns reported TGI for input O=C1CSC(c2ccccc2O)N1c1ccc(-n2c(-c3ccccc3)nc3ccccc3c2=O)cc1 (stereo unspecified)
Found: 59.1 µM

Lookup: // returns reported TGI for input Cc1ccc2ccc(-c3ccccc3)c3c2c1C(=O)c1ccccc1C3=O
Found: > 100 µM

Lookup: // returns reported TGI for input OCC(O)C(O)C(O)c1nn(-c2ccc(F)cc2)c2nc3cc(Cl)c(Cl)cc3nc12 (stereo unspecified)
Found: 39.2 µM

Lookup: // returns reported TGI for input N#C/C(=C(/O)CCl)c1nc2ccccc2o1
Found: 11.6 µM

Lookup: // returns reported TGI for input O=C1Cc2cn[nH]c2-c2ccccc2N1
Found: > 83.8 µM

Lookup: // returns reported TGI for input COc1ccc(COCC[C@H](C)OC2OC(CO)C(O)C(O)C2O)cc1 (stereo partly specified)
Found: > 100 µM

Lookup: // returns reported TGI for input C[C@@H]1CC[C@@H]2[C@@H](C1)O[C@@H]([C@@H](C)OCc1ccccc1)SC2(C)C
Found: 31 µM

Lookup: // returns reported TGI for input O=C1NCN(c2ccccc2)C12CCN(CC1COc3ccccc3O1)CC2 (stereo unspecified)
Found: > 100 µM

Lookup: // returns reported TGI for input COC(=O)/C=C(\C)CCC1SC1(C)C (stereo unspecified)
Found: > 100 µM

Lookup: // returns reported TGI for input COc1ccc(/C=C\c2cc(OC)c(OC)c(OC)c2)cc1
Found: > 100 µM
